target_system: UniProtKB P10635
Sequence (P10635 whole entry): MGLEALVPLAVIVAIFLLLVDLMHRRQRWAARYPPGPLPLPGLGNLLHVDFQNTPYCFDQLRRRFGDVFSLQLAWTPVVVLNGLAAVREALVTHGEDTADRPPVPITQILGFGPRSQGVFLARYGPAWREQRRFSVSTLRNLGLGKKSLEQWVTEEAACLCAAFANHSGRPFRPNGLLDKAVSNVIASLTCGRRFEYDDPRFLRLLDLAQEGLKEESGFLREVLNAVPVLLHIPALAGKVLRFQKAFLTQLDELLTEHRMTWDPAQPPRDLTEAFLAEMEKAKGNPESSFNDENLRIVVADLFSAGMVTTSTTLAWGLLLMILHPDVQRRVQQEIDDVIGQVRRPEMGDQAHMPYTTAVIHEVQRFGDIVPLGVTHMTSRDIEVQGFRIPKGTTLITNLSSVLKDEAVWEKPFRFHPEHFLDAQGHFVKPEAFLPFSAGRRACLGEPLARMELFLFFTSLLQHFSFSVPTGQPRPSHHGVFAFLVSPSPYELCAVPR
measurement_type: Kd (µM)
Quick note: give the figure in µM, leave out the unit.

Prompt: Find Kd (UniProtKB P10635) for the entry CCN(CC)CCNC(=O)c1cc(Cl)c(N)cc1OC [Metoclopramide]
Completion: 9.56
